meta.source: paper PMC6874530

TARGET ENTITY: LXRβ (Homo sapiens)
Construct: expression vectors pSG5-Gal4-LXRα LBD or pSG5-Gal4-LXRβ LBD; expressed in transfected cells; host or cells: U2OS osteosarcoma cells
Sequence (P55055 222-460 limits assumed): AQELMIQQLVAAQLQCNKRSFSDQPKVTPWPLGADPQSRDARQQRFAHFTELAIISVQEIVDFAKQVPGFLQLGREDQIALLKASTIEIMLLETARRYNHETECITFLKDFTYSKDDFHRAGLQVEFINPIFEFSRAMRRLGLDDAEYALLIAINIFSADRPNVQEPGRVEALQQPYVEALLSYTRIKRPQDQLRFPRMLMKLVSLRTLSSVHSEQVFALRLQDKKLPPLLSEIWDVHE
PROTOCOL DETAILS: Gal4 one hybrid reporter gene (transactivation) assay in U2OS cells, LXRβ
Type: cell-based
EXPERIMENTAL CONDITIONS: U2OS, 40 h; maximal activation compared with a reference full agonist; value (SD, n); read-out: LXRβ transactivation Agonist efficacy, %
Emax values, listed per item
All answers are understood in %, so give the number only.

molecule="CC(C)N1C(=O)C(NCCCCc2cccc(S(N)(=O)=O)n2)=C(c2ccccc2)S1(=O)=O [AZ3]" target_entity="LXRβ (Homo sapiens)" measurement_type=Emax readout_unit=% reported_result=94.3
molecule="CC(CCCc1cccc(S(N)(=O)=O)n1)NC1=C(c2ccccc2)S(=O)(=O)N(C(C)C)C1=O (stereo not shown) [AZ2]" target_entity="LXRβ (Homo sapiens)" measurement_type=Emax readout_unit=% reported_result=97.3
molecule="CC(C)N1C(=O)C(NC2CCN(c3ncc(CC(=O)O)cc3Cl)CC2)=C(c2ccccc2)S1(=O)=O [AZ6]" target_entity="LXRβ (Homo sapiens)" measurement_type=Emax readout_unit=% reported_result=95.3
molecule="CN(C)C(=O)c1cccc(CCCCNC2=C(c3ccccc3)S(=O)(=O)N(C(C)(C)C)C2=O)c1 [AZ1]" target_entity="LXRβ (Homo sapiens)" measurement_type=Emax readout_unit=% reported_result=76

[in] Fill in the blank: the reported Emax of O=C1C(Cc2ccccc2)=C(NCCCCc2ccccc2)C(=O)N1Cc1ccccc1 [AZ8] is ____.
[out] 102

[in] Please report the recorded Emax for CC(C)(C)N1C(=O)C(Cc2ccccc2)=C(NC2CCN(c3ncc(CC(=O)O)cc3Cl)CC2)C1=O [AZ7] .
[out] 104

[in] So what does the record say about Emax for CC(C)(C)N1C(=O)C(NC2CCN(c3ncc(CC(=O)O)cc3Cl)CC2)=C(c2ccccc2)S1(=O)=O [AZ4] ?
[out] 110
